B1: NELF-E aptamer (parent)
chain: CCCAACGACUGCCGAGCGAGAUUACGCUUGAGCGCCCCACUGAGGAUGCCCACGGGCGAUUGGGGCACGG

# Variants of: B1
# procedure-text: HiTS-RAP
# protocol-conditions: with NELF-E (Drosophila)
pKd: −log10 of the molar value.
// values below are reported pKd
test-readout: pKd

>>> measured("U10G C66A")
8.26
>>> measured("A19G C66U")
8.29
>>> measured("A4U A46G")
7.23
>>> measured("A4G C37A")
7.91
>>> measured("G48U")
8.22
>>> measured("A4G G26A")
8.34
>>> measured("C6U G34A")
8.18
>>> measured("U23G U60C")
7.92
>>> measured("G11U G65A")
8.26
>>> measured("G14A A39U")
7.51
>>> measured("G20A")
8.28
>>> measured("C13U A31G")
8.29
>>> measured("A8U C13U")
8.30
>>> measured("A4U G14U")
8.17
>>> measured("G14U G56U")
8.14
>>> measured("A5C G14U")
8.17
>>> measured("G7U A46G")
7.25
>>> measured("C27U U29G")
8.33
>>> measured("C9G G44A")
7.75
>>> measured("G26U U41G")
8.17
>>> measured("U47A G54A")
7.82
>>> measured("C12U G16U")
8.24
